- TARGET_OF_ASSAY: Histamine H2 receptor (Homo sapiens, UniProt P25021); also: assay procedure not described here
- Sequence (P25021 whole entry): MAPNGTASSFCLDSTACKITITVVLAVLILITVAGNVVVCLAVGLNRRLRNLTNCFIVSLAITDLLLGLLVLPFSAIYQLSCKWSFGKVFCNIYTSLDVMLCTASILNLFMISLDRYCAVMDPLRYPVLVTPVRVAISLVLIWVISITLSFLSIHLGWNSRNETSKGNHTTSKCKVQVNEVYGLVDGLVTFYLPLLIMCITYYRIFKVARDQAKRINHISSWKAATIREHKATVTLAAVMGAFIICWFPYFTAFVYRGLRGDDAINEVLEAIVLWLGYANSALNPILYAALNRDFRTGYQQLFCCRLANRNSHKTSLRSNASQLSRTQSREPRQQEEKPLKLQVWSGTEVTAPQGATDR
- Type: functional, cell-based
QUANTITY_KIND: AC50

INSERT INTO results (compound, result) VALUES
  ('N=C(N)NCCCCCCC(=O)NC(O)C(=O)NCCCCNCCCN (stereo not given)', '> 30 µM'),
  ('CC(C)N(CCCCOCC(=O)NS(C)(=O)=O)c1cnc(-c2ccccc2)c(-c2ccccc2)n1', '> 30 µM'),
  ('[H]/N=C(\N/C(=N/[H])NCCCCCCNC(=N)NC(=N)Nc1ccc(Cl)cc1)Nc1ccc(Cl)cc1', '> 10 µM'),
  ('O=C(CCCN1CCC(n2c(O)nc3ccccc32)CC1)c1ccc(F)cc1', '> 30 µM'),
  ('COCCCOc1ccnc(C[S+]([O-])c2nc3ccccc3[nH]2)c1C (stereo not given)', '> 10 µM');
